TEST: in vivo
RUN PARAMETERS: female, C57BL/6, mouse, po, 50 mg/kg, Cmax, C57Bl/6 mice, oral 50 mg/kg QD-4 days, plasma

[
  {
    "MOL SMILES": "CCS(=O)(=O)N1N=Cc2ccc(Oc3ccc(C(F)(F)F)cc3/C=N/O)cc2B1O",
    "VALUE UNIT": "ng/mL",
    "Cmax": 14900
  }
]

----------
TEST: in vivo
RUN PARAMETERS: female, C57BL/6, mouse, po, 25 mg/kg

[
  {
    "MOL SMILES": "CCS(=O)(=O)N1N=Cc2ccc(Oc3ccc(C(F)(F)F)cc3/C=N/O)cc2B1O",
    "AUC(0-inf), ng·h/mL": 59000
  }
]

----------
TEST: in vivo
RUN PARAMETERS: female, CD-1, mouse, po, 10 mg/kg, AUClast, CD-1 mice, oral 10 mg/kg, single dose, plasma
PROPERTY NAME: AUC(0-t) (ng·h/mL)

[
  {
    "MOL SMILES": "CCS(=O)(=O)N1N=Cc2ccc(Oc3ccc(C(F)(F)F)cc3/C=N/O)cc2B1O",
    "MEASUREMENT": 15400
  }
]
